test: PK test for small-intestinal administration of Oxytocin (ELISA); assay type: in vivo; conditions: male, rat, plasma; SD rats; ei 200 μg/kg with composition sodium lauryl sulfate, carbomer 934, water-soluble chitosan, disodium edetate 24:7.5:7:75 (1:5); vs iv 1 μg/kg
VALUE TYPE: bioavailability (%)
Just the number please, in %, no unit attached.

Sure, the documented bioavailability for CC[C@H](C)[C@@H]1NC(=O)[C@H](Cc2ccc(O)cc2)NC(=O)[C@@H](N)CSSC[C@@H](C(=O)N2CCC[C@H]2C(=O)N[C@@H](CC(C)C)C(=O)NCC(N)=O)NC(=O)[C@H](CC(N)=O)NC(=O)[C@H](CCC(N)=O)NC1=O is 2.58

###

assay: PK test for small-intestinal administration of Vasopressin (ELISA); assay type: in vivo; conditions: male, rat, plasma; SD rats; ei 200 μg/kg with composition sodium lauryl sulfate, carbomer, chitosan, sodium citrate 23:8:7.5:80 (1:5); vs iv 1 μg/kg
VALUE TYPE: bioavailability

So for NC(=O)CC[C@@H]1NC(=O)[C@H](Cc2ccccc2)NC(=O)[C@H](Cc2ccc(O)cc2)NC(=O)[C@@H](N)CSSC[C@@H](C(=O)N2CCC[C@H]2C(=O)N[C@@H](CCCN=C(N)N)C(=O)NCC(N)=O)NC(=O)[C@H](CC(N)=O)NC1=O , the logged bioavailability turned out to be 1.81%
